study-system: human β3 adrenergic receptor (Homo sapiens, UniProt P13945)
Construct: Full length β3 AR clones (402 amino acids) containing the last 6 amino acids of hβ3— AR are prepared
Sequence (P13945 whole entry): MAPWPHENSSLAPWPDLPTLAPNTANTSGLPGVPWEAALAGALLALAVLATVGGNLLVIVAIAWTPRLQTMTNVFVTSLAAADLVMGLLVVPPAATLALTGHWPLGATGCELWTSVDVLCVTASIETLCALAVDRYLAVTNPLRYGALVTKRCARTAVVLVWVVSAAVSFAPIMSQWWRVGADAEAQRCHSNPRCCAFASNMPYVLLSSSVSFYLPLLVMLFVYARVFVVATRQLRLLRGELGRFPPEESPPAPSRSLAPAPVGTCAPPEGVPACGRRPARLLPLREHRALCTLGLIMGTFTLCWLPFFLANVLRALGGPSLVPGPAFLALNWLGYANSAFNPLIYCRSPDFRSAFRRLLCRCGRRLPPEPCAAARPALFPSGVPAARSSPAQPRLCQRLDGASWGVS
assay-comment: cAMP accumulation (SPA) in CHO cells transfected with human β3 adrenergic receptor
assay-setup: CHO cells expressing human β3-AR; cAMP; 30 min incubation; 10^−9 M to 10^−5 M; read-out: beta-3 EC50
measured-endpoint: EC50 (nM)
Return type: number; implicit unit nM.

INSERT INTO measurements (compound, study_system, data_value) VALUES
  ('COc1ccc(NS(=O)(=O)c2ccc(N3CCC(NC[C@H](O)COc4cccc5[nH]c(=O)[nH]c45)CC3)cc2)cc1OC [Example 7]', 'human β3 adrenergic receptor (Homo sapiens, UniProt P13945)', 20);

Please give the measured EC50 for this compound: COC(=O)N(CC(=O)O)S(=O)(=O)c1ccc(N2CCC(NC[C@H](O)c3ccc(O)c(NS(C)(=O)=O)c3)CC2)cc1 [Example 60]
21
